Where these numbers come from: ChEMBL document CHEMBL5244215

- Tested on: L1210
- TEST PROTOCOL: cells
- Format: functional, cell-based
- CONDITION INFO: Mus musculus, L1210, 48 h
EXPERIMENTAL READOUT: IC50 (µM)
One number for each entry, in µM.

Problem: So what does the record say about IC50 for O=C1/C(=C/c2ccccc2)CN(C(=O)c2ccc(/C=C/C(=O)c3ccc(O)cc3)cc2)C/C1=C\c1ccccc1 ?
Solution: 5.34

---

- Tested on: HCT-15
- TEST PROTOCOL: cells
- Type: functional, cell-based
- CONDITION INFO: Homo sapiens, HCT-15, 48 h
EXPERIMENTAL READOUT: pIC50
Numbers only, as −log10 of the molar value.

Problem: So what does the record say about pIC50 for CCN1CC[C@@](O)(c2ccc(Oc3ccc(C)cc3)cc2)[C@H](C(=O)c2ccc(Oc3ccc(C)cc3)cc2)C1 ?
Solution: 5.40

---

- System: CCRF-CEM
- TEST PROTOCOL: cells
- Type: functional, cell-based
- CONDITION INFO: Homo sapiens, 48 h
EXPERIMENTAL READOUT: IC50 (µM)
Answers are plain numbers, in µM.

Problem: So what does the record say about IC50 for O=C1/C(=C/c2ccccc2)CN(C(=O)c2ccc(/C=C/C(=O)c3ccccc3)cc2)C/C1=C\c1ccccc1 ?
Solution: 1.58

---

- Test system: NCI-H3122
- TEST PROTOCOL: cells
- Assay type: functional, cell-based
- CONDITION INFO: Homo sapiens
- Description: Antiproliferative activity against human NCI-H3122 cells assessed as inhibition of cell proliferation
EXPERIMENTAL READOUT: pIC50
Answers are plain numbers, as −log10 of the molar value.

Problem: So what does the record say about pIC50 for COc1cc(C2CCN(C(=O)CO)CC2)ccc1Nc1ncc(C(F)(F)F)c(Nc2ccc(C3CCN(C(=O)CO)CC3)cc2OC)n1 ?
Solution: 7.34

---

- Tested on: SK-N-SH
- TEST PROTOCOL: cells
- Assay type: functional, cell-based
- CONDITION INFO: Homo sapiens, 48 h
EXPERIMENTAL READOUT: IC50 (µM)
One number for each entry, in µM.

Problem: So what does the record say about IC50 for COC(=O)C1C(=O)CC(c2ccc(OC)cc2)N(c2ccccc2)C1c1ccc(OC)cc1 (stereo unspecified) ?
Solution: 11

---

- TEST PROTOCOL: cells
- Type: functional, cell-based
- CONDITION INFO: Homo sapiens, QBC939, light or radiation study, 24 h
- Description: Phototoxicity against human QBC939 cells assessed as inhibition of cell growth incubated for 24 hrs followed by irradiated with 54 J/cm^2 of light dose and measured after 24 hrs by MTT colorimetric assay
EXPERIMENTAL READOUT: pIC50
Answers are plain numbers, as −log10 of the molar value.

Problem: So what does the record say about pIC50 for COC(C)c1c(C)c2cc3nc(cc4[nH]c(cc5nc(cc1[nH]2)C(C)=C5CCC(=O)O)c(CCC(=O)O)c4C)C(C)=C3C(C)O (stereo unspecified) ?
Solution: 5.02

---

- Tested on: HCT-116
- TEST PROTOCOL: cells
- Type: functional, cell-based
- CONDITION INFO: Homo sapiens, HCT-116, 48 h
EXPERIMENTAL READOUT: IC50 (µM)
Give bare numbers, in µM.

Problem: Which measured IC50 belongs to CCN1CC[C@@](O)(c2ccc(Oc3ccc(Cl)cc3)cc2)[C@H](C(=O)c2ccc(Oc3ccc(Cl)cc3)cc2)C1 , tested on HCT-116?
Solution: 3.8

---

- Test system: REH
- TEST PROTOCOL: cells
- Type: functional, cell-based
- CONDITION INFO: Homo sapiens
- Description: Antiproliferative activity against human REH cells assessed as inhibition of cell proliferation incubated for 48 to 72 hrs by MTT assay
EXPERIMENTAL READOUT: pIC50
Answers are plain numbers, as −log10 of the molar value.

Problem: So what does the record say about pIC50 for O=C(c1ccc(F)c([N+](=O)[O-])c1)N1CCC(CCCC2CCNCC2)CC1 ?
Solution: 5.64

---

- Test system: BEL-7404 tumor cell line
- TEST PROTOCOL: cells
- Type: functional, cell-based
- CONDITION INFO: Homo sapiens, BEL-7404, 72 h
- Description: Antiproliferative activity against human BEL-7404 tumor cell line assessed as inhibition of cell proliferation incubated for 72 hrs by MTT assay
EXPERIMENTAL READOUT: IC50

Problem: So what does the record say about IC50 for CCOC(=O)C12CC3CC(C1)CC(C(=O)OC1CC(C)(C)N(O)C(C)(C)C1)(C3)C2 ?
Solution: 4.33 µM

---

- TEST PROTOCOL: in vitro
- CONDITION INFO: human, wi-38
EXPERIMENTAL READOUT: IC50 at 48 h

Problem: So what does the record say about IC50 at 48 h for COc1cc(/C=C/C(=O)N2CCC=C(Cl)C2=O)cc(OC)c1OC ?
Solution: > 60 µM

---

- TEST PROTOCOL: cells
- Type: functional, cell-based, Molt 4/C8
- CONDITION INFO: Homo sapiens, Molt4/C8, 48 h
EXPERIMENTAL READOUT: IC50

Problem: So what does the record say about IC50 for O=C1/C(=C/c2ccccc2)CN(C(=O)c2ccc(/C=C/C(=O)c3ccc(O)cc3)cc2)C/C1=C\c1ccccc1 ?
Solution: 1.6 µM
